Molecular target: human JAK3 kinase domain (JH1) (Homo sapiens)
Construct: recombinantly generated catalytic kinase (also known as JH1) domain of human JAK1, JAK2, JAK3 and TYK2
Sequence (P52333 822-1111 limits assumed): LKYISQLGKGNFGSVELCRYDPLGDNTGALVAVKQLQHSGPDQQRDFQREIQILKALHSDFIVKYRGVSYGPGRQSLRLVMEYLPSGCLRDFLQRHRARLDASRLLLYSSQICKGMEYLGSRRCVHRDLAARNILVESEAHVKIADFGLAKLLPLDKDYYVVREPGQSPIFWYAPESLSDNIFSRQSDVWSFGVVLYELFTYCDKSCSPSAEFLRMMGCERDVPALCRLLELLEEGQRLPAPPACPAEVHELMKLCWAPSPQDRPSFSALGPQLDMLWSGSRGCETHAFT
Test: JH1 biochemical assay for JAK3 (ADP-Glo kinase assay, recombinant JH1 catalytic domain, JAK3-974 peptide, 4 μM ATP)
Settings: JAK3 JH1, ADP-Glo
Experimental: Compounds of the disclosure were assessed for their ability to inhibit TYK2, JAK1, JAK2, and JAK3 activity. The inhibitory properties of the compounds of the disclosure described herein can be evidenced by testing in any one of the following protocols. The kinase activity of recombinantly generated catalytic kinase (also known as JH1) domain of human JAK1, JAK2, JAK3 and TYK2 were evaluated in a plate-based assay using the ADP-Glo™ Kinase Assay platform. […]
pIC50: −log10 of the molar value. Structures can show the parent of a compound that is named as a salt.
Measured pIC50 accompanies every entry in the list below.
ASSAY ENDPOINT: pIC50

[
  {
    "COMPOUND": "C[C@@H]1CN(c2nc(-c3cnn(C4COC4)c3)cn3ncc(F)c23)C(=O)[C@]1(C#N)C1CC1",
    "ENDPOINT VALUE": "> 7.00"
  },
  {
    "COMPOUND": "Cc1ccn(-c2cc3c(N4C[C@@H](C)[C@@](C#N)(C5CC5)C4=O)ccnn3c2)n1",
    "ENDPOINT VALUE": "6.00 to 7.00"
  },
  {
    "COMPOUND": "C[C@@H]1CN(c2ccnn3cc(-c4cnn(CC5(C#N)CC5)c4)cc23)C(=O)[C@]1(C#N)C1CC1",
    "ENDPOINT VALUE": "> 7.00"
  },
  {
    "COMPOUND": "C[C@@H]1CN(c2ccnn3cc(-c4cnn(C5(CO)CC5)c4)cc23)C(=O)[C@]1(C#N)C1CC1",
    "ENDPOINT VALUE": "> 7.00"
  },
  {
    "COMPOUND": "C[C@@H]1CN(c2nc(-c3cnn(C(F)F)c3)cc3ncsc23)C(=O)[C@]1(C#N)C1CC1",
    "ENDPOINT VALUE": "> 7.00"
  },
  {
    "COMPOUND": "C[C@@H]1CN(c2nc(-c3cnn(CC(F)F)c3)cc3ncsc23)C(=O)[C@]1(C#N)C1CC1",
    "ENDPOINT VALUE": "> 7.00"
  },
  {
    "COMPOUND": "COc1cc(-c2cn3nccc3c(N3C[C@@H](C)[C@@](C#N)(C4CC4)C3=O)n2)ccn1 [Example 231, trifluoroacetate]",
    "ENDPOINT VALUE": "< 5.00"
  },
  {
    "COMPOUND": "C[C@@H]1CN(c2nc(-c3cnn(C4CC(F)(F)C4)c3)cn3nccc23)C(=O)[C@]1(C#N)C1CC1",
    "ENDPOINT VALUE": "> 7.00"
  },
  {
    "COMPOUND": "C[C@@H]1CN(c2nc(-c3cnn(C4CC5(COC5)C4)c3)cn3ncc(F)c23)C(=O)[C@]1(C#N)C1CC1",
    "ENDPOINT VALUE": "> 7.00"
  },
  {
    "COMPOUND": "CO[C@H]1C[C@H](n2cc(-c3cc4ncsc4c(N4C[C@@H](C)[C@@](C#N)(C5CC5)C4=O)n3)cn2)C1",
    "ENDPOINT VALUE": "> 7.00"
  },
  {
    "COMPOUND": "C[C@@H]1CN(c2nc(-c3cnn(CC#N)c3)cn3ncc(F)c23)C(=O)[C@]1(C#N)C1CC1",
    "ENDPOINT VALUE": "> 7.00"
  },
  {
    "COMPOUND": "C[C@@H]1CN(c2cc(-c3cnn(C4COC4)c3)cc3ncsc23)C(=O)[C@]1(C#N)C1CC1",
    "ENDPOINT VALUE": "> 7.00"
  },
  {
    "COMPOUND": "COCc1cnn(-c2cc3c(N4C[C@@H](C)[C@@](C#N)(C5CC5)C4=O)ccnn3c2)c1",
    "ENDPOINT VALUE": "6.00 to 7.00"
  },
  {
    "COMPOUND": "CC(C)[C@@]1(C#N)C(=O)N(c2nc(-c3cnn(C)c3)cn3ncc(F)c23)C[C@H]1C",
    "ENDPOINT VALUE": "> 7.00"
  },
  {
    "COMPOUND": "C[C@@H]1CN(c2nc(-c3cncc(Cl)c3)cn3nccc23)C(=O)[C@]1(C#N)C1CC1 [Example 248, trifluoroacetate]",
    "ENDPOINT VALUE": "5.30 to 6.00"
  },
  {
    "COMPOUND": "C[C@@H]1CN(c2nc(-c3cncc(O)c3)cn3nccc23)C(=O)[C@]1(C#N)C1CC1 [Example 258, trifluoroacetate]",
    "ENDPOINT VALUE": "> 7.00"
  },
  {
    "COMPOUND": "C[C@@H]1CN(c2ccnn3cc(-n4cc(C(F)F)cn4)cc23)C(=O)[C@]1(C#N)C1CC1",
    "ENDPOINT VALUE": "6.00 to 7.00"
  },
  {
    "COMPOUND": "C[C@@H]1CN(c2nc(-c3ccnn3C)cn3nccc23)C(=O)[C@]1(C#N)C1CC1 [Example 254, trifluoroacetate]",
    "ENDPOINT VALUE": "6.00 to 7.00"
  },
  {
    "COMPOUND": "C[C@@H]1CN(c2cccn3nc(-c4cnn(C)c4)cc23)C(=O)[C@]1(C#N)C1CC1",
    "ENDPOINT VALUE": "< 5.00"
  },
  {
    "COMPOUND": "C[C@@H]1CN(c2nc(-c3cnn([C@H]4C[C@@](F)(C#N)C4)c3)cn3ncc(F)c23)C(=O)[C@]1(C#N)C1CC1",
    "ENDPOINT VALUE": "> 7.00"
  },
  {
    "COMPOUND": "C[C@@H]1CN(c2nc(-c3ccc(N(C)C(=O)OC(C)(C)C)nc3)cn3nccc23)C(=O)[C@]1(C#N)C1CC1 [Example 266, trifluoroacetate]",
    "ENDPOINT VALUE": "> 7.00"
  },
  {
    "COMPOUND": "C[C@@H]1CN(c2nc(-c3cnn(C4CCOCC4)c3)cn3ncc(F)c23)C(=O)[C@]1(C#N)C1CC1",
    "ENDPOINT VALUE": "> 7.00"
  },
  {
    "COMPOUND": "C[C@@H]1CN(c2nc(-c3cnn(C4CC5(COC5)C4)c3)cn3nccc23)C(=O)[C@]1(C#N)C1CC1",
    "ENDPOINT VALUE": "> 7.00"
  },
  {
    "COMPOUND": "C[C@@H]1CN(c2nc(-c3cnn(C4CN(C)C4)c3)cc3ncsc23)C(=O)[C@]1(C#N)C1CC1",
    "ENDPOINT VALUE": "> 7.00"
  },
  {
    "COMPOUND": "C[C@@H]1CN(c2nc(-c3ccc4nccn4c3)cn3nccc23)C(=O)[C@]1(C#N)C1CC1 [Example 263, trifluoroacetate]",
    "ENDPOINT VALUE": "> 7.00"
  },
  {
    "COMPOUND": "Cc1ccc(-n2nc(N3C[C@@H](C)[C@@](C#N)(C4CC4)C3=O)c3ccncc32)cn1",
    "ENDPOINT VALUE": "5.30 to 6.00"
  },
  {
    "COMPOUND": "CC(=O)Nc1cncc(-c2cn3nccc3c(N3C[C@@H](C)[C@@](C#N)(C4CC4)C3=O)n2)c1 [Example 249, trifluoroacetate]",
    "ENDPOINT VALUE": "5.00 to 5.30"
  },
  {
    "COMPOUND": "C[C@@H]1CN(c2nc(-c3ccc(O)nc3)cn3nccc23)C(=O)[C@]1(C#N)C1CC1 [Example 267, trifluoroacetate]",
    "ENDPOINT VALUE": "> 7.00"
  }
]
